molecular target: trypsin; assay: TRF, 2.4 ug/mL Fab on trypsin
Where TRF signal equals or exceeds 200000, the correct label is rule met; where it does not, the label is rule not met.

KB_A09 Fab (Fab, V domains shown) VH: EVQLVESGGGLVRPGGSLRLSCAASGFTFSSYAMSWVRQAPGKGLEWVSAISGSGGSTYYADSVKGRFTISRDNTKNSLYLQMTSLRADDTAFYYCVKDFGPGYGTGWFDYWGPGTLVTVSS VL: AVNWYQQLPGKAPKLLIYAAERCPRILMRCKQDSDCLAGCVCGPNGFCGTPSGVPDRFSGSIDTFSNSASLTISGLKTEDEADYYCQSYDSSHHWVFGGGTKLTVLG
rule not met

Quick check: does KB_A06 Fab (Fab, V domains shown) VH: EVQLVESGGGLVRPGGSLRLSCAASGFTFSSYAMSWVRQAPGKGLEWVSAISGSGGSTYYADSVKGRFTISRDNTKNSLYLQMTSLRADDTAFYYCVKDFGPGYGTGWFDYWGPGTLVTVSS VL: AVNWYQQLPGKAPKLLIYAAVRCPRILMRCKQDSDCLAGCVCGPNGFCGTPSGIPERFSGSIDRSTNSASLTISGLKTEDEADYYCQSYDSSNLNWVFGGGTKLTVLG have TRF signal greater than or equal to 200000?
rule met

Quick check: does KB_A12 Fab (Fab, V domains shown) VH: EVQLVESGGGLVRPGGSLRLSCAASGFTFSSYAMSWVRQAPGKGLEWVSAISGSGGSTYYADSVKGRFTISRDNTKNSLYLQMTSLRADDTAFYYCVDFGPGYGTGWFDYWGPGTLVTVSS VL: AVNWYQQLPGKAPKLLIYAAGRCPRILMRCKQDSDCLAGCVCGPNGFCGANSGVSDRFSAAKSGTSASLAINGLRSEDEADYYCAAWDDSLNGYVFGTGTKLTVLG have TRF signal greater than or equal to 200000?
rule met

Quick check: does KB_C10 Fab (Fab, V domains shown) VH: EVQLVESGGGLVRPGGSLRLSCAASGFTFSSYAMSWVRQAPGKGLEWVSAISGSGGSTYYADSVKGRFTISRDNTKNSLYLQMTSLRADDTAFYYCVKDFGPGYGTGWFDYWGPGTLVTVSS VL: AVNWYQQLPGKAPKLLIYAAGPCPRILMRCKQDSDCLAGCVCGPNGFCGADSGVSDRFSGSKSGTSASLAITGLQAEDEGDYYCAAWDDSLNGLVFGGGTKVTVLG have TRF signal greater than or equal to 200000?
rule not met

Quick check: does KB_A01 Fab (Fab, V domains shown) VH: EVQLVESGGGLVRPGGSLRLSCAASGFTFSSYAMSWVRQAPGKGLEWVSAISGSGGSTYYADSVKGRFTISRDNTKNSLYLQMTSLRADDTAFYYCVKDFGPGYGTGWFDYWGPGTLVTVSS VL: YLNWYQQKPGKAPKLLIYAAEVCPRILMRCKQDSDCLAGCVCGPNGFCGGTSGVPSRFSGSRSGTEFTLTISSLQPEDFATYYCQKVDDYPLTFGGGTKVEIKR have TRF signal greater than or equal to 200000?
rule not met
